Each item that follows carries a reported mitochondrial oxygen consumption rate normalised.
tested on: FaDu; assay: mitochondrial oxygen consumption rate normalised to cell number, Z score vs plate DMSO wells; higher = higher oxygen consumption (negative = OCR reduction); settings: 0.08 µM; treatment time 24 h; assay medium: 5 mM glucose, 5 mM pyruvate, 4 mM glutamine;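 also: compound exposure in DMEM (4 mM L-glutamine, 5 mM glucose), antimycin A injected at 2 µM after the basal reading and its residual OCR subtracted from basal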
Lab note: write the figure by itself, no unit.

Below are worked cases with known answers.
MOLECULE	TARGET	ENDPOINT VALUE
CCC(C)n1ncn(-c2ccc(N3CCN(c4ccc(OCC5COC(Cn6cncn6)(c6ccc(Cl)cc6Cl)O5)cc4)CC3)cc2)c1=O (stereo not drawn)	FaDu	0.265
CO[C@@]12[C@H](COC(N)=O)C3=C(C(=O)C(C)=C(N)C3=O)N1C[C@@H]1N[C@@H]12	FaDu	-0.603
C[C@]12CC[C@@H]3c4ccc(O)cc4CC[C@H]3[C@@H]1CC[C@@H]2OC(=O)CCC1CCCC1	FaDu	0.0173
CC(C(O)c1ccc(O)cc1)N1CCC(Cc2ccccc2)CC1 (stereo not drawn)	FaDu	0.382
CN(C)CCCN1c2ccccc2CCc2ccccc21	FaDu	-0.638
CO[C@H]1C[C@H](O[C@H]2[C@H](C)O[C@@H](O[C@@H]3/C(C)=C/C[C@@H]4C[C@@H](C[C@]5(C=C[C@H](C)[C@@H](C6CCCCC6)O5)O4)OC(=O)[C@@H]4C=C(C)[C@@H](O)[C@H]5OC/C(=C\C=C\[C@@H]3C)[C@]54O)C[C@@H]2OC)O[C@@H](C)[C@@H]1O	FaDu	0.113
N[C@@H](Cc1ccc(O)c(O)c1)C(=O)O	FaDu	0.0621
Oc1c(Br)cc(Br)c2cccnc12	FaDu	0.816

# evaluate next
Input: Form field: reported mitochondrial oxygen consumption rate normalised of CCCCCCCCCCCCCCCC[N+](C)(C)C
Output: 0.46
